Test system: Staphylococcus aureus
Assay: Antimicrobial activity against Staphylococcus aureus ATCC 6538 at 0.0172 uM after 17 hrs by disk diffusion assay
Assay type: functional
Conditions: ATCC 6538, 17 h, read-out: IZ
Structures can show the parent of a compound that is named as a salt.
value_kind: zone of inhibition at 0.0172 µM (mm)
Report the figure in mm without appending any unit label.

compound	tested_on	zone of inhibition at 0.0172 µM [mm]
C/C(=C\C(=O)OCCCCCCCC(=O)N[C@H]1CCCNC1=O)[C@@H](O)[C@@H]1OC[C@H](C/C=C/[C@@H](C)[C@H](C)O)[C@@H](O)[C@H]1O	Staphylococcus aureus	16

Lab request: please report zone of inhibition at 0.0172 µM under test system Staphylococcus aureus for "C/C(=C\C(=O)OC(C)C)[C@@H](O)[C@@H]1OC[C@H](C/C=C/[C@@H](C)[C@H](C)O)[C@@H](O)[C@H]1O" 22

Lab request: please report zone of inhibition at 0.0172 µM under test system Staphylococcus aureus for "COC(=O)/C=C(\C)[C@@H](O)[C@@H]1OC[C@H](C/C=C/[C@@H](C)[C@H](C)O)[C@@H](O)[C@H]1O" 16

Lab request: please report zone of inhibition at 0.0172 µM under test system Staphylococcus aureus for "CCOC(=O)/C=C(\C)[C@@H](O)[C@@H]1OC[C@H](C/C=C/[C@@H](C)[C@H](C)O)[C@@H](O)[C@H]1O" 22

Lab request: please report zone of inhibition at 0.0172 µM under test system Staphylococcus aureus for C/C(=C\C(=O)OCCCCCCCCC(=O)O)C[C@@H]1OC[C@H](C[C@H]2O[C@@H]2[C@@H](C)[C@H](C)O)[C@@H](O)[C@H]1O [PSEUDOMONIC ACID A CALCIUM SALT] 32

----------
System: Staphylococcus aureus
Test: Antimicrobial activity against Staphylococcus aureus ATCC 25923 at 0.0172 uM after 17 hrs by disk diffusion assay
Assay type: functional
Settings: ATCC 25923, 17 h, read-out: IZ
Structures can show the parent of a compound that is named as a salt.
value_kind: zone of inhibition at 0.0172 µM (mm)
Report the figure in mm without appending any unit label.

compound	reading_unit	endpoint_value
COC(=O)/C=C(\C)[C@@H](O)[C@@H]1OC[C@H](C/C=C/[C@@H](C)[C@H](C)O)[C@@H](O)[C@H]1O	mm	13
C/C(=C\C(=O)OC(C)C)[C@@H](O)[C@@H]1OC[C@H](C/C=C/[C@@H](C)[C@H](C)O)[C@@H](O)[C@H]1O	mm	21

May I ask what zone of inhibition at 0.0172 µM has been recorded for C/C(=C\C(=O)OCCCCCCCCC(=O)O)C[C@@H]1OC[C@H](C[C@H]2O[C@@H]2[C@@H](C)[C@H](C)O)[C@@H](O)[C@H]1O [PSEUDOMONIC ACID A CALCIUM SALT] ? 26

May I ask what zone of inhibition at 0.0172 µM has been recorded for "C/C(=C\C(=O)OCCCCCCCC(=O)N[C@H]1CCCNC1=O)[C@@H](O)[C@@H]1OC[C@H](C/C=C/[C@@H](C)[C@H](C)O)[C@@H](O)[C@H]1O" ? 10

May I ask what zone of inhibition at 0.0172 µM has been recorded for "CCOC(=O)/C=C(\C)[C@@H](O)[C@@H]1OC[C@H](C/C=C/[C@@H](C)[C@H](C)O)[C@@H](O)[C@H]1O" ? 21
